No end group written: not given here.
QUANTITY: viability

## Task Field request: viability | item: VNWKKILGKIIKVVK-NH2 (C-terminus assumed) [Lasio, Lasioglossin-III]
## Result 62.3%
